Values were extracted from ChEMBL document CHEMBL1201862.

Test system: COLO 205
Test: NCI tumour cell line growth inhibition, 48 h
Calls of active or inactive are those of the source. Rule as the data show it: active = GI50 up to about 1.1 µM and inactive = higher.
I would appreciate it if you answered using one of these outcomes: YES for active, NO for inactive

Task: So what was the verdict on `COc1ccc(-c2c(CN3CCOCC3)sc3nc4ccccc4n23)cc1` in this test?
Output: NO

Task: So what was the verdict on `N#C/C(=C\c1c[nH]c2ccccc12)C(=O)c1ccc(O)c(O)c1` in this test?
Output: NO

Task: So what was the verdict on `COC(=O)c1ccc(C(=O)OC)c2nc3cc(C)ccc3nc12` in this test?
Output: NO

Task: So what was the verdict on `CCOc1ccc(/N=C/c2cccc3cccnc23)cc1` in this test?
Output: NO

Task: So what was the verdict on `O=CN/C=C/c1cccc(O)c1` in this test?
Output: NO

Task: So what was the verdict on `OCCN(CO)CO` in this test?
Output: NO

Task: So what was the verdict on CCC(C)NC(=S)N/N=C(\C)c1nc2cccnc2[nH]1 (configuration not stated) in this test?
Output: NO

Task: So what was the verdict on `O=C(Nc1nc2ncn(CCOC(=O)c3ccccc3)c2c(=O)[nH]1)c1ccccc1` in this test?
Output: NO

Task: So what was the verdict on `COc1cc2c(/C=C3/C(=O)Nc4ccccc43)c(Cl)[nH]c2cc1C` in this test?
Output: YES

Task: So what was the verdict on CCOC1C=CCCO1 (configuration not stated) in this test?
Output: NO

Task: So what was the verdict on O=C(O)CCC(NC(=O)c1ccc(Nc2cnc3ccc(C(F)(F)F)cc3n2)cc1)C(=O)O (configuration not stated) in this test?
Output: NO

Task: So what was the verdict on COc1ccc(COCC[C@H](C)OC2OC(CO)C(O)C(O)C2O)cc1 (some centres not stated) in this test?
Output: NO

Task: So what was the verdict on `COc1ccc(S(=O)(=O)NNS(C)(=O)=O)cc1` in this test?
Output: NO

Task: So what was the verdict on O=C(N/N=C(/c1nc2ccc(Cl)cc2[nH]c1=O)C(O)c1ccc(Cl)cc1Cl)c1ccncc1 (configuration not stated) in this test?
Output: NO

Task: So what was the verdict on `c1ccc(C(/C(=N/c2ccc(Cc3ccc(/N=C(\C(c4ccccc4)c4ccccc4)N4CC4)cc3)cc2)N2CC2)c2ccccc2)cc1` in this test?
Output: NO

Task: So what was the verdict on `Cc1[nH]c2cc([N+](=O)[O-])ccc2c1[N+](=O)[O-]` in this test?
Output: NO

Task: So what was the verdict on CC(=O)/C=C1/c2ccccc2N(C(C)=O)C1O (configuration not stated) in this test?
Output: NO

----------
Tested on: 786-0
Assay: NCI tumour cell line growth inhibition, 48 h
Active and inactive are the calls of the source. No stated cut-off is given here; in the data, active = GI50 up to about 1.1 µM and inactive = higher.
measured parameter: GI50

Task: Indicate its recorded GI50; the molecule in question is CCOC(=O)C1=C(C)N(C)C(=S)NC1c1cccc(O)c1 (stereo not drawn)
Output: 37.9 µM (inactive)

Task: Indicate its recorded GI50; the molecule in question is O=[N+]([O-])C(Cl)C(Cl)C(Cl)=C(Cl)Cl (stereo not drawn)
Output: 7.85 µM (inactive)

Task: Indicate its recorded GI50; the molecule in question is CC1(C)OC(COCCOCCCCCO)C(COCCOCCCCCO)O1 (stereo not drawn)
Output: > 100 µM (inactive)

Task: Indicate its recorded GI50; the molecule in question is CC(C)C1CC(CO)(CNc2nc(N)nc(Cl)c2C=O)C1 (stereo not drawn)
Output: 31.3 µM (inactive)

Task: Indicate its recorded GI50; the molecule in question is CC(C)c1cccc(C(C)C)c1NC(=O)C(=O)CC(=O)CC(c1ccccc1)c1c(O)oc2ccccc2c1=O (stereo not drawn)
Output: > 100 µM (inactive)

Task: Indicate its recorded GI50; the molecule in question is `OCCN(CO)CO`
Output: 91.4 µM (inactive)

Task: Indicate its recorded GI50; the molecule in question is `C=CCOc1ccc(C(=N/NC(=O)c2ccccc2)/N=N/c2ccccc2)cc1OC`
Output: > 100 µM (inactive)

Task: Indicate its recorded GI50; the molecule in question is `O=c1oc2c(Br)c(O)c(Br)cc2c2ccccc12`
Output: 42.1 µM (inactive)

Task: Indicate its recorded GI50; the molecule in question is `CN(C)CCCN1c2ccc([N+](=O)[O-])cc2CCc2cccc([N+](=O)[O-])c21`
Output: 13.6 µM (inactive)

Task: Indicate its recorded GI50; the molecule in question is CC(NC(=O)C(Cc1ccc(OC(=O)c2ccccc2)cc1)NC(=O)OC(C)(C)C)C(=O)NCC(=O)NC(Cc1ccccc1)C(=O)NN (stereo not drawn)
Output: > 100 µM (inactive)

Task: Indicate its recorded GI50; the molecule in question is `COc1ccc(CCN2CCC(C#N)(c3ccc(OC)c(OC)c3)CC2)cc1OC`
Output: > 100 µM (inactive)

Task: Indicate its recorded GI50; the molecule in question is `CN(C)CCC(CCN(C)C)=NOC(=O)c1ccccc1`
Output: > 100 µM (inactive)

Task: Indicate its recorded GI50; the molecule in question is `CSCCCN(CCCSC)CCCSC`
Output: > 100 µM (inactive)

Task: Indicate its recorded GI50; the molecule in question is `O=[N+]([O-])c1ccc(/N=N/c2c(O)ccc3cc(S(=O)(=O)O)cc(S(=O)(=O)O)c23)cc1`
Output: > 100 µM (inactive)

Task: Indicate its recorded GI50; the molecule in question is `CC(C)=C=CP(=O)(O)c1ccccc1`
Output: > 100 µM (inactive)

Task: Indicate its recorded GI50; the molecule in question is CC(=O)/C=C1/c2ccccc2N(C(C)=O)C1O (stereo not drawn)
Output: > 100 µM (inactive)

Task: Indicate its recorded GI50; the molecule in question is `C=C(C(=O)OCC)C(=O)OCC`
Output: > 100 µM (inactive)

Task: Indicate its recorded GI50; the molecule in question is `O=C(Cc1nc2ccccc2[nH]c1=O)c1c[nH]c2ccccc12`
Output: 13.9 µM (inactive)

Task: Indicate its recorded GI50; the molecule in question is `NC(=O)c1cc(N2CC2)c([N+](=O)[O-])cc1[N+](=O)[O-]`
Output: > 100 µM (inactive)

Task: Indicate its recorded GI50; the molecule in question is `C=C(CN(C)C)C(=O)c1cc(C)ccc1C`
Output: 2.96 µM (inactive)

Task: Indicate its recorded GI50; the molecule in question is `COc1ccc(CC(=O)c2cc(OC)c(OC)cc2C)cc1OC`
Output: > 100 µM (inactive)

Task: Indicate its recorded GI50; the molecule in question is OC(C1CCCCCCCCCC1)C(O)C1CCCCCCCCCC1 (stereo not drawn)
Output: > 100 µM (inactive)

Task: Indicate its recorded GI50; the molecule in question is CC(Oc1ccc2c(=O)cc(-c3ccccc3)oc2c1)C(=O)O (stereo not drawn)
Output: > 100 µM (inactive)

Task: Indicate its recorded GI50; the molecule in question is `CC(=O)C1=C(C)Cn2c(=O)c3ccccc3c(=O)n2C1`
Output: > 100 µM (inactive)

Task: Indicate its recorded GI50; the molecule in question is `Cn1cc(C[C@@H](N)C(=O)O)c2ccccc21`
Output: > 100 µM (inactive)

Task: Indicate its recorded GI50; the molecule in question is `CCOc1ccc(NC(=O)CCC(=O)NN)cc1`
Output: > 100 µM (inactive)

Task: Indicate its recorded GI50; the molecule in question is `O=S(=O)(Nc1nc2ccccc2nc1N1CCCCCC1)c1ccccc1`
Output: > 100 µM (inactive)

Task: Indicate its recorded GI50; the molecule in question is `CSC1=C(C)C(/C=N/Nc2ccc([N+](=O)[O-])cc2)=C(C)N(c2ccccc2)S1(=O)=O`
Output: > 100 µM (inactive)

Task: Indicate its recorded GI50; the molecule in question is CC(C)C1CN1CC(O)Cn1ccnc1[N+](=O)[O-] (stereo not drawn)
Output: > 100 µM (inactive)

Task: Indicate its recorded GI50; the molecule in question is `COc1cc(N(CCC#N)CCC#N)ccc1C(/N=N/c1cccc(C)c1)=N\NC(=O)c1ccc(C)cc1`
Output: > 100 µM (inactive)

Task: Indicate its recorded GI50; the molecule in question is Nc1nc2c(ncn2C2OC(CO)C(O)C2N)c(=O)[nH]1 (stereo not drawn)
Output: 48.2 µM (inactive)

Task: Indicate its recorded GI50; the molecule in question is `COC(=O)c1cc(C(=O)OC)cc(-c2ccc3c(c2)-c2nc4c(c(-c5ccc(OC)cc5)c2CC3)CCc2ccc(-c3cc(C(=O)OC)cc(C(=O)OC)c3)cc2-4)c1`
Output: > 100 µM (inactive)

Task: Indicate its recorded GI50; the molecule in question is OCC1OC(NC(=S)NCCC(F)(F)C(F)(F)C(F)(F)C(F)(F)C(F)(F)C(F)(F)F)C(O)C(O)C1O (stereo not drawn)
Output: > 100 µM (inactive)

Task: Indicate its recorded GI50; the molecule in question is CSc1nc2c(c(=O)n1C)N=C(c1ccc([N+](=O)[O-])cc1)CC(c1ccccc1)N2 (stereo not drawn)
Output: > 100 µM (inactive)

Task: Indicate its recorded GI50; the molecule in question is `CN(C)Cc1cc(/N=N/c2ccccc2Cl)ccc1O`
Output: 15.5 µM (inactive)

Task: Indicate its recorded GI50; the molecule in question is `CCOc1cc2c[n+](C)c3c4cc(OC)c(OC)cc4ccc3c2cc1OC`
Output: 17.7 µM (inactive)

Task: Indicate its recorded GI50; the molecule in question is `COC1=C(Br)[C@H](O)[C@@]2(C=C1Br)CC(C(=O)NCCCCCNC(=N)N)=NO2`
Output: > 10 µM (inactive)

Task: Indicate its recorded GI50; the molecule in question is COc1ccc(-n2c(C)nc3ccc(NC4OCC(OC(C)=O)C(OC(C)=O)C4OC(C)=O)cc3c2=O)cc1 (stereo not drawn)
Output: > 100 µM (inactive)

Task: Indicate its recorded GI50; the molecule in question is COC(=O)c1cc(C)ccc1CC(Cc1ccccc1C)C(=O)OC (stereo not drawn)
Output: 89.5 µM (inactive)

Task: Indicate its recorded GI50; the molecule in question is `CC(C)N/C(=N\C#N)NS(=O)(=O)c1cnccc1NC1CCCCCCC1`
Output: > 100 µM (inactive)

Task: Indicate its recorded GI50; the molecule in question is `CCCC[N+](CCCC)(CCCC)CCCC.O=S(=O)([O-])ON=C1c2ccccc2-c2ccccc21`
Output: > 100 µM (inactive)

Task: Indicate its recorded GI50; the molecule in question is `CCOC(=O)c1nc[nH]c1/N=N/N(C)N`
Output: 84.7 µM (inactive)

Task: Indicate its recorded GI50; the molecule in question is `CCN(CC)c1ccc(/N=C2/C=CC(=C(C#N)C#N)c3ccccc32)c(C)c1`
Output: 2.22 µM (inactive)
